Data origin: patent US20240209086A1

Consider the following binders and their measured IFNy Concentration pg/ml, Day 9, PB readings.
Biological target: canine CD3 on canine T cells (canine PBMC) (canine, UniProt P27597 22-202)
Sequence (P27597 22-202 limits assumed, chain 1 of 3): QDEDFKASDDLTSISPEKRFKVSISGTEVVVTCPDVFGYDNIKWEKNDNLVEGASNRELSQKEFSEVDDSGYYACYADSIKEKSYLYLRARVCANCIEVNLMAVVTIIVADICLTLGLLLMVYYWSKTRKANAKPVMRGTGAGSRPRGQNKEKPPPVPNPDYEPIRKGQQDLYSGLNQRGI
Sequence (chain, as listed by the source limits assumed, chain 2 of 3): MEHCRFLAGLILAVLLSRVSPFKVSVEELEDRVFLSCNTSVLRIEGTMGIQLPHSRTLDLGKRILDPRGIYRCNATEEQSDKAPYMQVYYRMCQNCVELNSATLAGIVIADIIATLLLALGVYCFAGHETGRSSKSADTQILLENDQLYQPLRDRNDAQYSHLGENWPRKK
Sequence (chain, as listed by the source limits assumed, chain 3 of 3): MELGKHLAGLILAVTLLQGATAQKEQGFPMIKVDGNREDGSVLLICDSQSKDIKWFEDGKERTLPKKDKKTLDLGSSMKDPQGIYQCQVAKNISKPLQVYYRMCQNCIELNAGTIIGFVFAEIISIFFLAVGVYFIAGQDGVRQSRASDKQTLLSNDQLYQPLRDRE
Assay: cell-based or functional assay
# output: bare number, implied unit pg/mL

| binder | measurementUnit | experimentalResult |
| --- | --- | --- |
| PMX158 (monospecific anti-canine CD3, canine IgG-B effector function deficient Fc) (antibody, V domains shown) VH: ELTLQESGPGLVKPSQTLSLTCVVSGGSVTRSYYWNWIRQRPGRGLEWMGYWTGTTNYNPAFQGRISITADTAKNQCSLQLSSMTTEDTAVYYCAREGGKLLGAFGHWGQGTLVTVSS VL: SYVLTQLPSKNVTLKQPAHITCGGDKIGSKSVHWYQQKLGQAPVLIIYYDSSRLTGIPERFSGANSGNTATLTISGALAEDEADYYCQVWDSSAKASVFGGGTHLTVL | pg/mL | 2440 |

Read the next record carefully.
PMX180 (monospecific anti-canine CD3, canine IgG-B effector function deficient Fc) (antibody, V domains shown) VH: ELTLQESGPGLVKPSQTLSLTCVVSGGSVTSNYYWNWIRQRPGRGLEWMGYWTGSTNYNPAFQGRISITADTAKKQFSLQLRSMTIEDTAVYYCARRGIPIFFDYWGQGTLVTVSS VL: SYVLTQLPSKNVTLKQPAHITCGGDNIGSKSVHWYQQKLGQAPVLIIYYDSSRPTGIPERFSGANSGNTATLTISGALAEDEADYYCQVWDSSASVFGGGTHLTVL has a reported IFNy Concentration pg/ml, Day 9, PB of 773
